experiment summary: Pharmacokinetic test in rats (inhalation administration)
conditions: SD rats, single inhalation dose 0.03 mg/kg, lung tissue
# Lung Cmax per entry
The response must be a number in ng/mL with no trailing unit.

Lung Cmax measured on CC(C)(Cc1csc([C@]2(C)C(=O)Nc3nc(-c4nc(Cc5ccccc5F)n5ncccc45)nc(N)c32)n1)C(=O)O = 2842

Measured Lung Cmax of CC(C)(Cc1csc(C2(C)C(=O)Nc3nc(-n4nc(CCC(F)(F)C(F)(F)F)c5ncc(F)cc54)nc(N)c32)n1)C(=O)O (single isomer, unassigned) : 1729

Entry under test: CC(C)(Cc1csc([C@]2(C)C(=O)Nc3nc(-n4c(=O)n(CCC(F)(F)C(F)(F)F)c5cc(F)ccc54)nc(N)c32)n1)C(=O)O . Its Lung Cmax was 1183

The molecule CC(C)(Cc1csc([C@]2(C)C(=O)Nc3nc(-c4nn(CCC(F)(F)C(F)(F)F)c5ncccc45)nc(N)c32)n1)C(=O)O [Control compound 1, reference compound] showed Lung Cmax equal to 273

Lab note: measured Lung Cmax of CC(C)(Cc1csc([C@]2(C)C(=O)Nc3nc(-c4nc(CCC(F)(F)C(F)(F)F)n5cc(F)ccc45)nc(N)c32)n1)C(=O)O was 2846

Lung Cmax reading for CC(C)(Cc1csc(C2(C)C(=O)Nc3nc(-n4nc(Cc5cccc(F)c5F)c5ncc(F)cc54)nc(N)c32)n1)C(=O)O (single isomer, unassigned) : 4067

Form field Lung Cmax, entry CC(C)(Cc1csc([C@]2(C)C(=O)Nc3nc(-c4nc(CCC(F)(F)C(F)(F)F)n5ncccc45)nc(N)c32)n1)C(=O)O : 2979

// Lung Cmax lookup, molecule = CC(C)(Cc1csc(C2(C)C(=O)Nc3nc(-n4nc(CCC(F)(F)C(F)(F)F)c5cc(Cl)ccc54)nc(N)c32)n1)C(=O)O (single isomer, unassigned) , result: 2352

Per the records, this molecule ( CC(C)(Cc1cccc([C@@]2(C)C(=O)Nc3nc(-c4nn(CCC(F)(F)C(F)(F)F)c5cc(Cl)cnc45)nc(N)c32)c1)C(=O)O ) has Lung Cmax equal to 2825

Lung Cmax reported for this molecule CC(C)(Cc1csc([C@]2(C)C(=O)Nc3nc(-n4nc(CCC(F)(F)C(F)(F)F)c5cc(F)ccc54)nc(N)c32)n1)C(=O)O : 1754

The reported value for CC(C)(Cc1csc([C@]2(C)C(=O)Nc3nc(-n4c(=O)n(Cc5ccccc5F)c5cc(F)ccc54)nc(N)c32)n1)C(=O)O in terms of Lung Cmax is 1743

Measured Lung Cmax, CC(C)(Cc1csc(C2(C)C(=O)Nc3nc(-n4nc(Cc5ccccc5F)c5ncc(F)cc54)nc(N)c32)n1)C(=O)O (single isomer, unassigned) : 2545

---

experiment summary: Pharmacokinetic test in rats (inhalation administration)
conditions: SD rats, single inhalation dose 0.03 mg/kg
measured parameter: Lung AUC0-t/plasma AUC0-t
Would you mind answering with just the numeric figure?

# example entries with known answers
CC(C)(Cc1csc(C2(C)C(=O)Nc3nc(-n4nc(Cc5cccc(F)c5F)c5ncc(F)cc54)nc(N)c32)n1)C(=O)O (single isomer, unassigned) : 49.1
CC(C)(Cc1csc([C@]2(C)C(=O)Nc3nc(-n4c(=O)n(CCC(F)(F)C(F)(F)F)c5cc(F)ccc54)nc(N)c32)n1)C(=O)O : 97.9
CC(C)(Cc1csc([C@]2(C)C(=O)Nc3nc(-n4nc(CCC(F)(F)C(F)(F)F)c5cc(F)ccc54)nc(N)c32)n1)C(=O)O : 48.4
CC(C)(Cc1cccc([C@@]2(C)C(=O)Nc3nc(-c4nn(CCC(F)(F)C(F)(F)F)c5cc(Cl)cnc45)nc(N)c32)c1)C(=O)O : 659
CC(C)(Cc1csc([C@]2(C)C(=O)Nc3nc(-n4c(=O)n(Cc5ccccc5F)c5cc(F)ccc54)nc(N)c32)n1)C(=O)O : 83.6

Attention now shifts to the item below.
The compound identified as CC(C)(Cc1csc(C2(C)C(=O)Nc3nc(-n4nc(CCC(F)(F)C(F)(F)F)c5cc(Cl)ccc54)nc(N)c32)n1)C(=O)O (single isomer, unassigned) registered its Lung AUC0-t/plasma AUC0-t at 77.1

---

experiment summary: Pharmacokinetic test in rats (inhalation administration)
conditions: SD rats, single inhalation dose 0.03 mg/kg
measured parameter: Lung AUC0-t/plasma AUC0-t

Below: 2 compounds and their reported Lung AUC0-t/plasma AUC0-t.
CC(C)(Cc1csc([C@]2(C)C(=O)Nc3nc(-c4nc(CCC(F)(F)C(F)(F)F)n5cc(F)ccc45)nc(N)c32)n1)C(=O)O : 43.4
CC(C)(Cc1csc([C@]2(C)C(=O)Nc3nc(-c4nc(Cc5ccccc5F)n5ncccc45)nc(N)c32)n1)C(=O)O : 245

Now consider a different compound.
Value of Lung AUC0-t/plasma AUC0-t reported for the compound CC(C)(Cc1csc([C@]2(C)C(=O)Nc3nc(-c4nc(CCC(F)(F)C(F)(F)F)n5ncccc45)nc(N)c32)n1)C(=O)O is 65

---

experiment summary: Pharmacokinetic test in rats (inhalation administration)
conditions: male, SD, rat, lung and plasma, inhaled or intranasal, 0.03 mg/kg
measured parameter: Kp
Answer field: number only, no words.

Kp measured on CC(C)(Cc1csc([C@]2(C)C(=O)Nc3nc(-c4nn(CCC(F)(F)C(F)(F)F)c5ncccc45)nc(N)c32)n1)C(=O)O [Control compound 1, reference compound] = 29.1

---

experiment summary: Pharmacokinetic test in rats (inhalation administration)
conditions: SD rats, single inhalation dose 0.03 mg/kg, lung tissue
# binarize Lung AUC0-t: threshold 3000 ng·h/mL inclusive, high side Condition met, low side Condition not met

CC(C)(Cc1csc(C2(C)C(=O)Nc3nc(-n4nc(Cc5cccc(F)c5F)c5ncc(F)cc54)nc(N)c32)n1)C(=O)O (single isomer, unassigned) : Condition met

Does the reported Lung AUC0-t for CC(C)(Cc1csc(C2(C)C(=O)Nc3nc(-n4nc(Cc5ccccc5F)c5ncc(F)cc54)nc(N)c32)n1)C(=O)O (single isomer, unassigned) fall at or above the 3000 ng·h/mL mark?
Condition met

Answer whether Lung AUC0-t of CC(C)(Cc1csc([C@]2(C)C(=O)Nc3nc(-c4nn(CCC(F)(F)C(F)(F)F)c5ncccc45)nc(N)c32)n1)C(=O)O [Control compound 1, reference compound] is greater than or equal to 3000 ng·h/mL.
Condition not met

Could you please find out whether CC(C)(Cc1csc([C@]2(C)C(=O)Nc3nc(-c4nc(Cc5ccccc5F)n5ncccc45)nc(N)c32)n1)C(=O)O has Lung AUC0-t that meets 3000 ng·h/mL or exceeds it?
Condition met

Is Lung AUC0-t at least 3000 ng·h/mL? Consider CC(C)(Cc1csc(C2(C)C(=O)Nc3nc(-n4nc(CCC(F)(F)C(F)(F)F)c5cc(Cl)ccc54)nc(N)c32)n1)C(=O)O (single isomer, unassigned)
Condition not met

Answer whether Lung AUC0-t of CC(C)(Cc1cccc([C@@]2(C)C(=O)Nc3nc(-c4nn(CCC(F)(F)C(F)(F)F)c5cc(Cl)cnc45)nc(N)c32)c1)C(=O)O is greater than or equal to 3000 ng·h/mL.
Condition met

Could you verify whether the entry CC(C)(Cc1csc([C@]2(C)C(=O)Nc3nc(-c4nc(CCC(F)(F)C(F)(F)F)n5cc(F)ccc45)nc(N)c32)n1)C(=O)O shows Lung AUC0-t of no less than 3000 ng·h/mL?
Condition met

Exam item: decide whether the reported Lung AUC0-t for CC(C)(Cc1csc([C@]2(C)C(=O)Nc3nc(-n4nc(CCC(F)(F)C(F)(F)F)c5cc(F)ccc54)nc(N)c32)n1)C(=O)O is at least 3000 ng·h/mL.
Condition not met

---

Property: Lung AUC0-t; scope: individual molecules
experiment summary: Pharmacokinetic test in rats (inhalation administration)
conditions: SD rats, single inhalation dose 0.03 mg/kg, lung tissue
State just the number; it will be interpreted in ng·h/mL.

CC(C)(Cc1csc(C2(C)C(=O)Nc3nc(-n4nc(CCC(F)(F)C(F)(F)F)c5ncc(F)cc54)nc(N)c32)n1)C(=O)O (single isomer, unassigned) : 3281
CC(C)(Cc1csc([C@]2(C)C(=O)Nc3nc(-n4c(=O)n(CCC(F)(F)C(F)(F)F)c5cc(F)ccc54)nc(N)c32)n1)C(=O)O : 608

Note to self: Lung AUC0-t recorded for CC(C)(Cc1csc([C@]2(C)C(=O)Nc3nc(-c4nc(CCC(F)(F)C(F)(F)F)n5ncccc45)nc(N)c32)n1)C(=O)O was 3626
